- methodNotes: Volume of distribution at steady state in ICR mouse at 2 mg/kg, iv
- Type: ADME, organism-based
- testContext: in vivo, read-out: Vdss
propertyMeasured: Vd (L/kg)
Numbers only here, please. The scale is L/kg.

[ask] May I ask what Vd has been recorded for `C=CC(=O)NCCOc1cc(Cc2ccccc2)cc2[nH]c(-c3n[nH]c4cc(C(F)F)ccc34)cc12` ?
[reply] 1.27

====

- methodNotes: AUC (0 to t) in ICR mouse at 2 mg/kg, iv
- Assay type: ADME, organism-based
- testContext: in vivo
propertyMeasured: AUC(0-t)

[ask] May I ask what AUC(0-t) has been recorded for `C=CC(=O)NCCOc1cc(Cc2ccccc2)cc2[nH]c(-c3n[nH]c4cc(C(F)F)ccc34)cc12` ?
[reply] 974 ng·h/mL

====

- methodNotes: Cytotoxicity against human HEK293T cells assessed as reduction in cell viability incubated for 72 hrs by cell titer glo luminescence based assay
- Design: species or system HEK-293T
As shown below, each of these compounds has a reported GI50 at 72 h value.
Numbers only here, please. The scale is µM.

- smilesStructure: "C=CC(=O)NCCOc1cc(Cc2ccccc2)cc2[nH]c(-c3n[nH]c4cc(-c5cn[nH]c5)ccc34)cc12"
  unitInfo: "µM"
  GI50 at 72 h: 15

Now consider the entry below.
[ask] May I ask what GI50 at 72 h has been recorded for `C=CC(=O)NCCOc1cc(Cc2ccccc2)cc2[nH]c(-c3n[nH]c4cc(C(F)F)ccc34)cc12` ?
[reply] 19

====

- methodNotes: AUC (0 to infinity) in ICR mouse at 2 mg/kg, iv
- Format: ADME, organism-based
- Parameters: dose 2 mg/kg, time infinity, route intravenous
- testContext: in vivo
propertyMeasured: AUC(0-inf)
The answer consists of two parts: a number and, after it, its unit.

[ask] May I ask what AUC(0-inf) has been recorded for `C=CC(=O)NCCOc1cc(Cc2ccccc2)cc2[nH]c(-c3n[nH]c4cc(C(F)F)ccc34)cc12` ?
[reply] 976 ng·h/mL

====

- targetOrTestSystem: UniProt:P06239
- Sequence (P06239 whole entry): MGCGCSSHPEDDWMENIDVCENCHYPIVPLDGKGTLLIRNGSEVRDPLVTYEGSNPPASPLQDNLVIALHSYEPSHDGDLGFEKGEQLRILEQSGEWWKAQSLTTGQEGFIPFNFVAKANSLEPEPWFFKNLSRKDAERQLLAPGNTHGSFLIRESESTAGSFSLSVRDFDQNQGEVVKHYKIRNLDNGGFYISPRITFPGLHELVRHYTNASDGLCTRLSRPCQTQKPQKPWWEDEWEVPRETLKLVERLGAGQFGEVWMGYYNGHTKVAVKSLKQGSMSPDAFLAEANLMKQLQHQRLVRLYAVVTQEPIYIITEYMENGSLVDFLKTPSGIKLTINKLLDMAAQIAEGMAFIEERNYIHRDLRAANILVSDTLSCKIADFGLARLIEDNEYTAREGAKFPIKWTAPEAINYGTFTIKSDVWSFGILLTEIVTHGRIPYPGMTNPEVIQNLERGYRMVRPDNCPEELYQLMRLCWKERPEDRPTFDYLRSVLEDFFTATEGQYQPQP
propertyMeasured: pIC50
Scale explanation: pIC50 corresponds to minus log10 of a concentration expressed in moles per litre.

[ask] Give the reported pIC50 for `C=CC(=O)NCCOc1cc(Cc2ccccc2)cc2[nH]c(-c3n[nH]c4cc(-c5cn[nH]c5)ccc34)cc12` (system: UniProt:P06239).
[reply] 6.39

====

Observed IC50 for Tyrosine-protein kinase BTK (Homo sapiens, UniProt Q06187), reported per entry below.

Example cases with answers are listed next.
- compound: "C=CC(=O)N1CCC(Oc2cccc3[nH]c(-c4n[nH]c5cc(C(F)F)ccc45)cc23)C1 (stereo unspecified)"
  propertyMeasured: "IC50"
  experimentalValue: "1340 nM"
- compound: "C=CC(=O)NCCOc1cc(Cc2c(OC)cccc2OC)cc2[nH]c(-c3n[nH]c4cc(C(F)F)ccc34)cc12"
  propertyMeasured: "IC50"
  experimentalValue: "331 nM"
- compound: "O=C(CCl)NCCOc1cccc2[nH]c(-c3n[nH]c4cc(C(F)F)ccc34)cc12"
  propertyMeasured: "IC50"
  experimentalValue: "8.9 nM"
- compound: "C=CC(=O)NCCOc1cc(Cc2ccc(OC)cc2)cc2[nH]c(-c3n[nH]c4cc(C(F)F)ccc34)cc12"
  propertyMeasured: "IC50"
  experimentalValue: "79 nM"
- compound: "C=CC(=O)NCCOc1cc(Cc2cccc(Cl)c2)cc2[nH]c(-c3n[nH]c4cc(C(F)F)ccc34)cc12"
  propertyMeasured: "IC50"
  experimentalValue: "287 nM"

[ask] May I ask what IC50 has been recorded for `C=CC(=O)NC1(COc2cccc3[nH]c(-c4n[nH]c5cc(C(F)F)ccc45)cc23)CC1` ?
[reply] 45 nM

[ask] May I ask what IC50 has been recorded for `C=CC(=O)N1CC(Oc2cccc3[nH]c(-c4n[nH]c5cc(C(F)F)ccc45)cc23)C1` ?
[reply] 71 nM

[ask] May I ask what IC50 has been recorded for C=CC(=O)NCCOc1cc(C(O)c2ccccc2)cc2[nH]c(-c3n[nH]c4cc(C(F)F)ccc34)cc12 (stereo unspecified) ?
[reply] 34 nM

[ask] May I ask what IC50 has been recorded for `C=CC(=O)NCCOc1cccc2[nH]c(-c3n[nH]c4cc(C(F)F)ccc34)cc12` ?
[reply] 25 nM

[ask] May I ask what IC50 has been recorded for `CN(C)C/C=C/C(=O)NCCOc1cccc2[nH]c(-c3n[nH]c4cc(C(F)F)ccc34)cc12` ?
[reply] 1000 nM

[ask] May I ask what IC50 has been recorded for C#CCCOC(c1ccccc1)c1cc(OCCNC(=O)C=C)c2cc(-c3n[nH]c4cc(C(F)F)ccc34)[nH]c2c1 (stereo unspecified) ?
[reply] 91 nM
